assayed_target: GST-Aq-NF-kB (Amphimedon queenslandica, UniProt A9Y5G7 2-389)
Sequence: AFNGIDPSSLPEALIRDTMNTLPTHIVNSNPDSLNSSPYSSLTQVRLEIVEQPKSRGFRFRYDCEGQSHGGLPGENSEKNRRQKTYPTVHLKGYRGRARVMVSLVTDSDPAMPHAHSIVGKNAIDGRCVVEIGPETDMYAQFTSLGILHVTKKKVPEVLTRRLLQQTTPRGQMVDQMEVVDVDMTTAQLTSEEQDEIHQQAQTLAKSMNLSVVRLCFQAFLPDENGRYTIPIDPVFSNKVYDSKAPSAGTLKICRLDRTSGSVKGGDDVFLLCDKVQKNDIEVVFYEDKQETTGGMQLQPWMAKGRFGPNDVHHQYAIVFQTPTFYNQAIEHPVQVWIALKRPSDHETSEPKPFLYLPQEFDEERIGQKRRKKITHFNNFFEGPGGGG
assay_comment: protein-binding microarray (PBM); PBM: ~300 nM protein, 6 mM HEPES pH 7.8, 80 mM KCl, 0.5 mM EDTA, 0.5 mM EGTA, 6% glycerol, 35 ng/ul poly-dIdC, 1% milk, 1 h, room temperature; Ap Aiptasia and Nv Nematostella (sea anemones) / Co Capsaspora / Aq Amphimedon (sponge) / Dm Drosophila / Hu human; RHD is the Rel homology domain; high values mean tight binding
study_conditions: dsDNA, one strand shown
measured_attribute: binding signal (z-score)
Kindly provide the numeric value in z-score only, without the unit symbol.

Query for GST-Aq-NF-kB (Amphimedon queenslandica, UniProt A9Y5G7 2-389): what binding signal does the record show for `CCGATTAACATCAAAATCCCCCCTGATGTTAATCGGGTCTTGATTCGCTTGACGCTGCTG` ?
8.11

Query for GST-Aq-NF-kB (Amphimedon queenslandica, UniProt A9Y5G7 2-389): what binding signal does the record show for `CCGATTAACATCAAATTTCCCGCTGATGTTAATCGGGTCTTGATTCGCTTGACGCTGCTG` ?
5.22

Query for GST-Aq-NF-kB (Amphimedon queenslandica, UniProt A9Y5G7 2-389): what binding signal does the record show for `CCGATTAACATCAGGTTATTCCATGATGTTAATCGGGTCTTGATTCGCTTGACGCTGCTG` ?
1.85

Query for GST-Aq-NF-kB (Amphimedon queenslandica, UniProt A9Y5G7 2-389): what binding signal does the record show for `CCGATTAACATCAGGGAGAACCCTGATGTTAATCGGGTCTTGATTCGCTTGACGCTGCTG` ?
6.47

Query for GST-Aq-NF-kB (Amphimedon queenslandica, UniProt A9Y5G7 2-389): what binding signal does the record show for `CCGATTAACATCAGGAGTTTCCCTGATGTTAATCGGGTCTTGATTCGCTTGACGCTGCTG` ?
8.06

Query for GST-Aq-NF-kB (Amphimedon queenslandica, UniProt A9Y5G7 2-389): what binding signal does the record show for `CCGATTAACATCAAGGTTTTCCCTGATGTTAATCGGGTCTTGATTCGCTTGACGCTGCTG` ?
5.65

Query for GST-Aq-NF-kB (Amphimedon queenslandica, UniProt A9Y5G7 2-389): what binding signal does the record show for `CCGATTAACATCAGGAAATACCCTGATGTTAATCGGGTCTTGATTCGCTTGACGCTGCTG` ?
9.37

Query for GST-Aq-NF-kB (Amphimedon queenslandica, UniProt A9Y5G7 2-389): what binding signal does the record show for `CCGATTAACATCAAGGACTTTCCTGATGTTAATCGGGTCTTGATTCGCTTGACGCTGCTG` ?
4.6

Query for GST-Aq-NF-kB (Amphimedon queenslandica, UniProt A9Y5G7 2-389): what binding signal does the record show for `CCGATTAACATCAGGAAATATCCTGATGTTAATCGGGTCTTGATTCGCTTGACGCTGCTG` ?
1.24

Query for GST-Aq-NF-kB (Amphimedon queenslandica, UniProt A9Y5G7 2-389): what binding signal does the record show for `CCGATTAACATCAAATTCCCTTATGATGTTAATCGGGTCTTGATTCGCTTGACGCTGCTG` ?
5.01

Query for GST-Aq-NF-kB (Amphimedon queenslandica, UniProt A9Y5G7 2-389): what binding signal does the record show for `CCGATTAACATCACGGGGATTTCTGATGTTAATCGGGTCTTGATTCGCTTGACGCTGCTG` ?
7.52

Query for GST-Aq-NF-kB (Amphimedon queenslandica, UniProt A9Y5G7 2-389): what binding signal does the record show for `CCGATTAACATCAATCTTCCCCCTGATGTTAATCGGGTCTTGATTCGCTTGACGCTGCTG` ?
6.23

Query for GST-Aq-NF-kB (Amphimedon queenslandica, UniProt A9Y5G7 2-389): what binding signal does the record show for `CCGATTAACATCAGGCTTCCCCCTGATGTTAATCGGGTCTTGATTCGCTTGACGCTGCTG` ?
5.57

Query for GST-Aq-NF-kB (Amphimedon queenslandica, UniProt A9Y5G7 2-389): what binding signal does the record show for `CCGATTAACATCACCCAGGGAAATGATGTTAATCGGGTCTTGATTCGCTTGACGCTGCTG` ?
2.69

Query for GST-Aq-NF-kB (Amphimedon queenslandica, UniProt A9Y5G7 2-389): what binding signal does the record show for `CCGATTAACATCAGGGGATTTACTGATGTTAATCGGGTCTTGATTCGCTTGACGCTGCTG` ?
7.83

Query for GST-Aq-NF-kB (Amphimedon queenslandica, UniProt A9Y5G7 2-389): what binding signal does the record show for `CCGATTAACATCAGGGAATCCACTGATGTTAATCGGGTCTTGATTCGCTTGACGCTGCTG` ?
5.29

Query for GST-Aq-NF-kB (Amphimedon queenslandica, UniProt A9Y5G7 2-389): what binding signal does the record show for `CCGATTAACATCAAATACCCCCTTGATGTTAATCGGGTCTTGATTCGCTTGACGCTGCTG` ?
6.04

Query for GST-Aq-NF-kB (Amphimedon queenslandica, UniProt A9Y5G7 2-389): what binding signal does the record show for `CCGATTAACATCAGAAACTTCCCTGATGTTAATCGGGTCTTGATTCGCTTGACGCTGCTG` ?
5.51

Query for GST-Aq-NF-kB (Amphimedon queenslandica, UniProt A9Y5G7 2-389): what binding signal does the record show for `CCGATTAACATCAGGGAGTCCCATGATGTTAATCGGGTCTTGATTCGCTTGACGCTGCTG` ?
4.21

Query for GST-Aq-NF-kB (Amphimedon queenslandica, UniProt A9Y5G7 2-389): what binding signal does the record show for `CCGATTAACATCAGGGGGTAGAATGATGTTAATCGGGTCTTGATTCGCTTGACGCTGCTG` ?
3.38

Query for GST-Aq-NF-kB (Amphimedon queenslandica, UniProt A9Y5G7 2-389): what binding signal does the record show for `CCGATTAACATCAGAAAACCCCATGATGTTAATCGGGTCTTGATTCGCTTGACGCTGCTG` ?
5.03

Query for GST-Aq-NF-kB (Amphimedon queenslandica, UniProt A9Y5G7 2-389): what binding signal does the record show for `CCGATTAACATCAGGAAACAACCTGATGTTAATCGGGTCTTGATTCGCTTGACGCTGCTG` ?
2.89

Query for GST-Aq-NF-kB (Amphimedon queenslandica, UniProt A9Y5G7 2-389): what binding signal does the record show for `CCGATTAACATCAGATACTCCCCTGATGTTAATCGGGTCTTGATTCGCTTGACGCTGCTG` ?
4.46

Query for GST-Aq-NF-kB (Amphimedon queenslandica, UniProt A9Y5G7 2-389): what binding signal does the record show for `CCGATTAACATCAAAAATTTTCCTGATGTTAATCGGGTCTTGATTCGCTTGACGCTGCTG` ?
1.81

Query for GST-Aq-NF-kB (Amphimedon queenslandica, UniProt A9Y5G7 2-389): what binding signal does the record show for `CCGATTAACATCAAATTTCCCTATGATGTTAATCGGGTCTTGATTCGCTTGACGCTGCTG` ?
6.3

Query for GST-Aq-NF-kB (Amphimedon queenslandica, UniProt A9Y5G7 2-389): what binding signal does the record show for `CCGATTAACATCACGGGGTGGCCTGATGTTAATCGGGTCTTGATTCGCTTGACGCTGCTG` ?
1.55

Query for GST-Aq-NF-kB (Amphimedon queenslandica, UniProt A9Y5G7 2-389): what binding signal does the record show for `CCGATTAACATCAGGGAAGTTTATGATGTTAATCGGGTCTTGATTCGCTTGACGCTGCTG` ?
5.26

Query for GST-Aq-NF-kB (Amphimedon queenslandica, UniProt A9Y5G7 2-389): what binding signal does the record show for `CCGATTAACATCACTATACCCCCTGATGTTAATCGGGTCTTGATTCGCTTGACGCTGCTG` ?
2.68

Query for GST-Aq-NF-kB (Amphimedon queenslandica, UniProt A9Y5G7 2-389): what binding signal does the record show for `CCGATTAACATCAAATTCCCACGTGATGTTAATCGGGTCTTGATTCGCTTGACGCTGCTG` ?
2.61

Query for GST-Aq-NF-kB (Amphimedon queenslandica, UniProt A9Y5G7 2-389): what binding signal does the record show for `CCGATTAACATCACGCAATTCCCTGATGTTAATCGGGTCTTGATTCGCTTGACGCTGCTG` ?
3.43

Query for GST-Aq-NF-kB (Amphimedon queenslandica, UniProt A9Y5G7 2-389): what binding signal does the record show for `CCGATTAACATCAATCTCCCCCATGATGTTAATCGGGTCTTGATTCGCTTGACGCTGCTG` ?
3.51

Query for GST-Aq-NF-kB (Amphimedon queenslandica, UniProt A9Y5G7 2-389): what binding signal does the record show for `CCGATTAACATCAGGGTAAACCCTGATGTTAATCGGGTCTTGATTCGCTTGACGCTGCTG` ?
6.52

Query for GST-Aq-NF-kB (Amphimedon queenslandica, UniProt A9Y5G7 2-389): what binding signal does the record show for `CCGATTAACATCAGGGGGGAGACTGATGTTAATCGGGTCTTGATTCGCTTGACGCTGCTG` ?
4.79

Query for GST-Aq-NF-kB (Amphimedon queenslandica, UniProt A9Y5G7 2-389): what binding signal does the record show for `CCGATTAACATCAGGAATTCACCTGATGTTAATCGGGTCTTGATTCGCTTGACGCTGCTG` ?
4.83

Query for GST-Aq-NF-kB (Amphimedon queenslandica, UniProt A9Y5G7 2-389): what binding signal does the record show for `CCGATTAACATCAGGGGAACTAATGATGTTAATCGGGTCTTGATTCGCTTGACGCTGCTG` ?
4.07

Query for GST-Aq-NF-kB (Amphimedon queenslandica, UniProt A9Y5G7 2-389): what binding signal does the record show for `CCGATTAACATCAGGGGGACACCTGATGTTAATCGGGTCTTGATTCGCTTGACGCTGCTG` ?
5.46

Reference for the values: paper PMC5700166
